biological target: T1, Recombinant Human DLL4 (delta-like protein 4) (human, UniProt Q9NR61 27-524); assay: ELISA, DLL4 coated on plate, 100 nM Fab
T1 construct: Bought recombinant human DLL4 (R&D Systems Cat#1506-D4/CF) coated on the ELISA plate; also called rHuman DLL4; Delta-like ligand 4
# ELISA Signal-blank (100 nM Fab) values compiled below
Please reply with the value in numeric form only.

Example results:
[
  {
    "BINDER": "Fab VH5-51_IGHD5-18*01>3_IGHJ4*01 G100K/G104T G24T/S28R/G35V (H:KT TRV) & V3-4_IGLJ1*01 V91L/S96P S57I (Fab, V domains shown, Fab made in E. coli: VH in plasmid A (CH1, His6 and Flag tags), VL in plasmid E (lambda CL); also called H:KT TRV & L:LP S57I) VH: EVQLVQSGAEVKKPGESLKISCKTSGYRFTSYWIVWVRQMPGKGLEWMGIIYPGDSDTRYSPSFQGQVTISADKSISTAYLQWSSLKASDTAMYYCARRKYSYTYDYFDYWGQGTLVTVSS VL: QTVVTQEPSFSVSPGGTVTLTCGLSSGSVSTSYYPSWYQQTPGQAPRTLIYSTNTRISGVPDRFSGSILGNKAALTITGAQADDESDYYCLLYMGPGISYVFGTGTKVTVL",
    "REPORTED": 0.24
  },
  {
    "BINDER": "Fab VH5-51_IGHD5-18*01>3_IGHJ4*01 G100K/G104T G24T/S28R/G35V (H:KT TRV) & V3-4_IGLJ1*01 V91L/S96P S57M (Fab, V domains shown, Fab made in E. coli: VH in plasmid A (CH1, His6 and Flag tags), VL in plasmid E (lambda CL); also called H:KT TRV & L:LP S57M) VH: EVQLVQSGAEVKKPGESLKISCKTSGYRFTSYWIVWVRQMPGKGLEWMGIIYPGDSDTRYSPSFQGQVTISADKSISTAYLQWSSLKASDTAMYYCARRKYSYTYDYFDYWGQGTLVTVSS VL: QTVVTQEPSFSVSPGGTVTLTCGLSSGSVSTSYYPSWYQQTPGQAPRTLIYSTNTRMSGVPDRFSGSILGNKAALTITGAQADDESDYYCLLYMGPGISYVFGTGTKVTVL",
    "REPORTED": 0.3
  },
  {
    "BINDER": "Fab VH5-51_IGHD5-18*01>3_IGHJ4*01 G100K/G104T G24T/S28R/G35V (H:KT TRV) & V3-4_IGLJ1*01 V91L/S96P S57K (Fab, V domains shown, Fab made in E. coli: VH in plasmid A (CH1, His6 and Flag tags), VL in plasmid E (lambda CL); also called H:KT TRV & L:LP S57K) VH: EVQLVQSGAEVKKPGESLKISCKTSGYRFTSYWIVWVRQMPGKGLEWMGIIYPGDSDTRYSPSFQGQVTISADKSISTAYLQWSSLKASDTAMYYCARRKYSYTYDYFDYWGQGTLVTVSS VL: QTVVTQEPSFSVSPGGTVTLTCGLSSGSVSTSYYPSWYQQTPGQAPRTLIYSTNTRKSGVPDRFSGSILGNKAALTITGAQADDESDYYCLLYMGPGISYVFGTGTKVTVL",
    "REPORTED": 0.17
  }
]

Reported ELISA Signal-blank (100 nM Fab) of Fab VH5-51_IGHD5-18*01>3_IGHJ4*01 G100K/G104T G24T/S28R/G35V (H:KT TRV) & V3-4_IGLJ1*01 V91L/S96P T53G (Fab, V domains shown, Fab made in E. coli: VH in plasmid A (CH1, His6 and Flag tags), VL in plasmid E (lambda CL); also called H:KT TRV & L:LP T53G) VH: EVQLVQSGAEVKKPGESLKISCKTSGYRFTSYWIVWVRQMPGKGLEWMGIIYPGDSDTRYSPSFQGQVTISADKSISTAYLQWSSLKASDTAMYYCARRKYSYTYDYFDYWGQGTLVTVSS VL: QTVVTQEPSFSVSPGGTVTLTCGLSSGSVSTSYYPSWYQQTPGQAPRTLIYSGNTRSSGVPDRFSGSILGNKAALTITGAQADDESDYYCLLYMGPGISYVFGTGTKVTVL : 0.08

Data origin: patent US20120316071A1
